Just for reference, PubChem BioAssay AID1030 is where these values come from.

Tested System: Aldehyde dehydrogenase 1A1 (Homo sapiens)
Protocol Text: qHTS Assay for Inhibitors of Aldehyde Dehydrogenase 1 (ALDH1A1); further: potency means the concentration at half of the fitted maximal effect
Assay Conditions: Purified ALDH1A1, NADH fluorescence, propionaldehyde substrate; series mostly up to 75.3 µM
About 16,000 (7.3%) of roughly 220,000 compounds were called active. Roughly 25% stayed inconclusive and do not appear here. This is one part of a sample in which actives are shown more often than they occur.
Test Readout: Potency

[
  {
    "Molecule": "CCN1C[C@@]2(COC)CC[C@H](OC)[C@]34[C@@H]1[C@]1(OCO[C@@]15C[C@@H](OC)C1C[C@H]3[C@H]5[C@@H]1OC)[C@H](O)[C@@H]24",
    "Result": "inactive"
  },
  {
    "Molecule": "COc1ccc(C(=O)C2CCCN(Cc3ccc(C)s3)C2)cc1OC (stereo not given)",
    "Result": "inactive"
  },
  {
    "Molecule": "CN(C)C1C(=O)C(C(N)=O)=C(O)[C@@]2(O)C(=O)C3=C(O)c4c(O)cccc4[C@@](C)(O)C3C[C@@H]12 (stereo not given in full)",
    "Result": "inactive"
  },
  {
    "Molecule": "BrC1C(Br)C(Br)C(Br)C(Br)C1Br (stereo not given)",
    "Result": "20 µM (active)"
  },
  {
    "Molecule": "c1csc(CN2CC3(CCNCC3)C2)n1",
    "Result": "inactive"
  },
  {
    "Molecule": "C[C@@]1([C@@H](NP(=O)(c2ccccc2)c2ccccc2)c2ccccc2)C[C@H]1CCO",
    "Result": "inactive"
  },
  {
    "Molecule": "C/C(=C\\C=C/[C@@H](C)C(=O)O)[C@H]1CN[C@H](C(=O)O)[C@@H]1CC(=O)O",
    "Result": "inactive"
  },
  {
    "Molecule": "CN1CCN(C(=O)O[C@@H]2c3nccnc3C(=O)N2c2ccc(Cl)cn2)CC1",
    "Result": "inactive"
  },
  {
    "Molecule": "CCN1CCN(c2ccc([N+](=O)[O-])cc2C#N)CC1",
    "Result": "inactive"
  },
  {
    "Molecule": "C=CCN1C(=O)C2(C(C(=O)OCC)=C(N)Oc3c2c(=O)oc2ccccc32)c2ccccc21 (stereo not given)",
    "Result": "0.398 µM (active)"
  },
  {
    "Molecule": "O=C(CSC1c2ccccc2-c2ccccc21)N/N=C/c1ccccc1",
    "Result": "inactive"
  },
  {
    "Molecule": "c1ccc2sc(SNC3CCCCC3)nc2c1",
    "Result": "0.794 µM (active)"
  },
  {
    "Molecule": "CO[C@@H]1C[C@@H](C[C@H]2CC[C@H](C)[C@@H]([C@@H](C)C(=O)O)O2)O[C@]2(O[C@](C)([C@H]3CC[C@@](C)(C4OC([C@H]5O[C@@](O)(CO)[C@H](C)C[C@@H]5C)C[C@@H]4C)O3)C[C@H]2C)[C@@H]1C (stereo not given in full)",
    "Result": "inactive"
  },
  {
    "Molecule": "C1CC[C@H]([C@@]23C[C@H](C[C@H]4CCCN[C@H]42)[C@@H]2CCCCN2C3)NC1",
    "Result": "inactive"
  },
  {
    "Molecule": "COc1cc(C(=S)N2CCOCC2)ccc1O",
    "Result": "18.9 µM (active)"
  },
  {
    "Molecule": "Fc1ccc(N2CCN(Cc3ccc4c(c3)OCO4)CC2)cc1",
    "Result": "inactive"
  },
  {
    "Molecule": "CC1=CC(=O)C2=C(C)C[C@H](O)[C@H]3[C@H](C)C(=O)O[C@@H]3C12 (stereo not given in full)",
    "Result": "inactive"
  },
  {
    "Molecule": "c1ccc2sc(N3CCNCC3)nc2c1",
    "Result": "inactive"
  },
  {
    "Molecule": "COc1ccc(CN2CCN(c3ccccc3F)CC2)c(OC)c1",
    "Result": "inactive"
  },
  {
    "Molecule": "ClC(Cl)=C(Cl)C(Cl)=C(Cl)Cl",
    "Result": "inactive"
  }
]
